- TARGET_OR_SYSTEM: T1, human follicle-stimulating hormone receptor (FSHR) (human, UniProt P23945 18-695)
- T1 construct: whole, on cells; also called huFSHR; hFSHR
- T1 sequence (looked up): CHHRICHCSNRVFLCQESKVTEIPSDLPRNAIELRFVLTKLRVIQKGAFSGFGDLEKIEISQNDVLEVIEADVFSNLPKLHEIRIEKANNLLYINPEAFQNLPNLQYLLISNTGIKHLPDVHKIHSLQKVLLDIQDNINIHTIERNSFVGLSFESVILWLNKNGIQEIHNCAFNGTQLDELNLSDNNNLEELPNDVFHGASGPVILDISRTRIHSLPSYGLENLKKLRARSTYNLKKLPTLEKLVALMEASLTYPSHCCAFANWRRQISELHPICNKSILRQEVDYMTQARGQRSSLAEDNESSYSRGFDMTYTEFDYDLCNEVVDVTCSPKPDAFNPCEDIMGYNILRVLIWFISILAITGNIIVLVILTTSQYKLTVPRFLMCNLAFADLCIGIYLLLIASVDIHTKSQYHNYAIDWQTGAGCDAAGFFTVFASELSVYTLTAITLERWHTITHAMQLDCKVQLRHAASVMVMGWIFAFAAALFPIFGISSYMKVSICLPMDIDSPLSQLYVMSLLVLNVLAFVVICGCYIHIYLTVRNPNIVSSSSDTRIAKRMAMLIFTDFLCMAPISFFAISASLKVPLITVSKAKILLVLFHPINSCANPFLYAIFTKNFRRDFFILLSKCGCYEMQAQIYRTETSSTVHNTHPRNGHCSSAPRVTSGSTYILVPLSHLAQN
- MEASUREMENT_DESCRIPTION: FACS on huFSHR L-cells, 4-fold serial dilutions, goat anti-mouse IgG-APC detection
Measured pEC50 accompanies every entry in the list below.
Would you please state pEC50, meaning minus log10 of the concentration in mol/L, as a bare number?

Reference set (4 entries):
mouse IgG2a anti human FSHR antibody 3 (VH CDR1 of SEQ ID NO 3, VH CDR2 of SEQ ID NO 8) (antibody, V domains shown, Mouse IgG2a heavy constant domains and mouse C kappa; also called sample 3; mouse IgG2 FSHR323 variant) VH: QVQLQQSGAELMKPGASVKISCKATGYTFSKQWLLWVKQRPGHGLEWIGEIFPRNGNTNYNEKFKGKATFTADTSSSTAYMQLSSLTSEDSAVYYCARGPTASGYAMDYWGQGTSVTVSS VL: DVLMTQTPLSLPVSLGDQASISCRSSQSIVHRNGNTYLEWYLQKPGQSPKLLIYKVSNRFSGVPDRFSGSGSGTDFTLKIIRVEAEDLGVYYCFQGSHVPFTFGSGTKLEIK :: 10.05
mouse IgG2a anti human FSHR antibody 1 (VH CDR1 of SEQ ID NO 1, VH CDR2 of SEQ ID NO 6) (antibody, V domains shown, VH was cloned in frame with mouse IgG2a heavy constant domains and the V kappa with mouse C kappa; also called sample 1; mouse IgG2 FSHR323 variant) VH: QVQLQQSGAELMKPGASVKISCKATGYTFSQFYVGWVKQRPGHGLEWIGEIFPRTGNTNYNEKFKGKATFTADTSSSTAYMQLSSLTSEDSAVYYCARGPTASGYAMDYWGQGTSVTVSS VL: DVLMTQTPLSLPVSLGDQASISCRSSQSIVHRNGNTYLEWYLQKPGQSPKLLIYKVSNRFSGVPDRFSGSGSGTDFTLKIIRVEAEDLGVYYCFQGSHVPFTFGSGTKLEIK :: 9.68
mouse IgG2a anti human FSHR antibody 5 (VH CDR1 of SEQ ID NO 5, VH CDR2 of SEQ ID NO 10) (antibody, V domains shown, Mouse IgG2a heavy constant domains and mouse C kappa; also called sample 5; mouse IgG2 FSHR323 variant) VH: QVQLQQSGAELMKPGASVKISCKATGYTFSKYWTQWVKQRPGHGLEWIGEIYPRNGNTNYNEKFKGKATFTADTSSSTAYMQLSSLTSEDSAVYYCARGPTASGYAMDYWGQGTSVTVSS VL: DVLMTQTPLSLPVSLGDQASISCRSSQSIVHRNGNTYLEWYLQKPGQSPKLLIYKVSNRFSGVPDRFSGSGSGTDFTLKIIRVEAEDLGVYYCFQGSHVPFTFGSGTKLEIK :: 10.00
mouse IgG2a anti human FSHR antibody 4 (VH CDR1 of SEQ ID NO 4, VH CDR2 of SEQ ID NO 9) (antibody, V domains shown, Mouse IgG2a heavy constant domains and mouse C kappa; also called sample 4; mouse IgG2 FSHR323 variant) VH: QVQLQQSGAELMKPGASVKISCKATGYTFSRSWILWVKQRPGHGLEWIGEIYPQNQNTNYNEKFKGKATFTADTSSSTAYMQLSSLTSEDSAVYYCARGPTASGYAMDYWGQGTSVTVSS VL: DVLMTQTPLSLPVSLGDQASISCRSSQSIVHRNGNTYLEWYLQKPGQSPKLLIYKVSNRFSGVPDRFSGSGSGTDFTLKIIRVEAEDLGVYYCFQGSHVPFTFGSGTKLEIK :: 10.01

Request: What value of pEC50 has been reported for the following binder? mouse IgG2a anti human FSHR antibody 2 (VH CDR1 of SEQ ID NO 2, VH CDR2 of SEQ ID NO 7) (antibody, V domains shown, Mouse IgG2a heavy constant domains and mouse C kappa; also called sample 2; mouse IgG2 FSHR323 variant) VH: QVQLQQSGAELMKPGASVKISCKATGYTFSRQWVIWVKQRPGHGLEWIGEILPRNGNTNYNEKFKGKATFTADTSSSTAYMQLSSLTSEDSAVYYCARGPTASGYAMDYWGQGTSVTVSS VL: DVLMTQTPLSLPVSLGDQASISCRSSQSIVHRNGNTYLEWYLQKPGQSPKLLIYKVSNRFSGVPDRFSGSGSGTDFTLKIIRVEAEDLGVYYCFQGSHVPFTFGSGTKLEIK
Result: 10.06
